# studySystem: human Nav1.1 (Homo sapiens, UniProt P35498)
# Construct: host or cells: HEK293
# assayExplanation: Amplification of Nav1.1-derived voltage-dependent sodium current (Nav1.1 current), cell line stably expressing human Nav1.1, automated patch clamp
# Type: cell-based
# conditionNotes: compound 3 μmol/L; HEK293 stably expressing human Nav1.1

[
  {
    "compound": "CC1CC=C(c2ccc(=O)n(CC(=O)N3CCc4c(C5CNC5)cccc43)n2)CC1 (racemic) [Example 299]",
    "Nav1.1 current amplification rate (%)": "6%"
  },
  {
    "compound": "CC1CC=C(c2ccc(=O)n(CC(=O)Nc3ccc4oc(CN5CCOCC5)nc4c3)n2)CC1 (racemic) [Example 331]",
    "Nav1.1 current amplification rate (%)": "64%"
  },
  {
    "compound": "CC1CC=C(c2ccc(=O)n(CC(=O)N3CCc4c(C5CN(CCO)C5)cccc43)n2)CC1 (racemic) [Example 303]",
    "Nav1.1 current amplification rate (%)": "67%"
  },
  {
    "compound": "CC1CC=C(c2ccc(=O)n(CC(=O)N3CCN(c4ccccc4)CC3)n2)CC1 (racemic) [Example 258]",
    "Nav1.1 current amplification rate (%)": "79%"
  },
  {
    "compound": "CC1CC=C(c2ccc(=O)n(CC(=O)N3CCc4c(CN5CCCC5)cccc43)n2)CC1 (racemic) [Example 271]",
    "Nav1.1 current amplification rate (%)": "48%"
  },
  {
    "compound": "CC1CC=C(c2ccc(=O)n(CC(=O)N3CCc4c(-c5ccncc5)cccc43)n2)CC1 (racemic) [Example 250]",
    "Nav1.1 current amplification rate (%)": "564%"
  },
  {
    "compound": "CC1CC=C(c2ccc(=O)n(CC(=O)Nc3cccc(N4CCOCC4)c3F)n2)CC1 (racemic) [Example 322]",
    "Nav1.1 current amplification rate (%)": "115%"
  },
  {
    "compound": "COc1ccc(N2CCN(C(=O)Cn3nc(C4=CCC(C)CC4)ccc3=O)CC2)cn1 (stereo not drawn) [Example 407]",
    "Nav1.1 current amplification rate (%)": "113%"
  },
  {
    "compound": "COc1ncc(N2CCN(C(=O)Cn3nc(C4=CCC(C)CC4)ccc3=O)CC2)cc1F (stereo not drawn) [Example 409]",
    "Nav1.1 current amplification rate (%)": "244%"
  },
  {
    "compound": "CC1(C)CC=C(c2ccc(=O)n(CC(=O)N3CCc4c(C5CN(C(=O)CO)C5)cccc43)n2)CC1 [Example 437]",
    "Nav1.1 current amplification rate (%)": "582%"
  },
  {
    "compound": "CC1CC=C(c2ccc(=O)n(CC(=O)Nc3cc4nccn4cn3)n2)CC1 (racemic) [Example 328]",
    "Nav1.1 current amplification rate (%)": "58%"
  },
  {
    "compound": "CC1CC=C(c2ccc(=O)n(CC(=O)N3CCc4c(-c5ccnnc5)cccc43)n2)CC1 (racemic) [Example 253]",
    "Nav1.1 current amplification rate (%)": "455%"
  },
  {
    "compound": "CC1CC=C(c2ccc(=O)n(CC(=O)N3CCc4c(CN5CCOCC5)cccc43)n2)CC1 (racemic) [Example 270]",
    "Nav1.1 current amplification rate (%)": "481%"
  },
  {
    "compound": "CC1CC=C(c2ccc(=O)n(CC(=O)Nc3ccc4oc(C(C)(C)O)nc4c3)n2)CC1 (racemic) [Example 327]",
    "Nav1.1 current amplification rate (%)": "124%"
  },
  {
    "compound": "CC1CC=C(c2ccc(=O)n(CC(=O)N3CCc4c(C5CN(C(=O)C(C)(C)O)C5)cccc43)n2)CC1 (racemic) [Example 306]",
    "Nav1.1 current amplification rate (%)": "532%"
  }
]
